Entry source: ChEMBL document CHEMBL1157561

Biological target: UniProt O00418
Sequence (O00418 whole entry): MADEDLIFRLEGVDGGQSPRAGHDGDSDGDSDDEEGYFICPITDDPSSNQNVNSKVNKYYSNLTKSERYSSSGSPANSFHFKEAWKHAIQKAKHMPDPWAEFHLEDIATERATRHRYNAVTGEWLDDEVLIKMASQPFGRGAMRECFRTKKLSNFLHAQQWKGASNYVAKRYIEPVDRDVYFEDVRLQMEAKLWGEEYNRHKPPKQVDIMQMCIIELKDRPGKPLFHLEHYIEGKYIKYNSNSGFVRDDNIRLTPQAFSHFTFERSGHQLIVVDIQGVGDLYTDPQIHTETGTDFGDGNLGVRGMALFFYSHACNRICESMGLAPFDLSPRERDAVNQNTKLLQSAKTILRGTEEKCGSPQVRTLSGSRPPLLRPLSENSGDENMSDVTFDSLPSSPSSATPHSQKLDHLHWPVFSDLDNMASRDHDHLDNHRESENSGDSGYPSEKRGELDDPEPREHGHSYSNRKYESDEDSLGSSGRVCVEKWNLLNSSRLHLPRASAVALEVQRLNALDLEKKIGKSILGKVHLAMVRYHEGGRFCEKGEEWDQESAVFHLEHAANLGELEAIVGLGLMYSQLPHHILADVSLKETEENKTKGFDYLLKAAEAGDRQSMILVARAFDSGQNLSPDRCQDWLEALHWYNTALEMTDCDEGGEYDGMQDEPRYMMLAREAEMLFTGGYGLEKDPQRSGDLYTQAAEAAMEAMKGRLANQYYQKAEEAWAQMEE
readout.label: IC50

1. CC(=O)N1CCC(Nc2ncc3c(n2)-c2c(c(C(N)=O)nn2C)CC3)CC1 > 10 µM

Next item in the queue.
Input: GET IC50 | system: UniProt O00418 | item: Cn1nc(C(N)=O)c2c1-c1nc(NC3CCN(C(=O)c4ccccc4)CC3)ncc1CC2
Output: > 10 µM

----------
Record type: IC50 measurement. Applies to: Serine/threonine-protein kinase PAK 4 (Homo sapiens, UniProt O96013)

1. CC(=O)N1CCC(Nc2ncc3c(n2)-c2c(c(C(N)=O)nn2C)CC3)CC1 > 10 µM

Input: GET IC50 | system: Serine/threonine-protein kinase PAK 4 (Homo sapiens, UniProt O96013) | item: Cn1nc(C(N)=O)c2c1-c1nc(NC3CCN(C(=O)c4ccccc4)CC3)ncc1CC2
Output: > 10 µM

----------
Target: Cyclin-dependent kinase 2/cyclin A (Homo sapiens, UniProt P24941)
Assay: Inhibition of CDK2/Cyclin A
pIC50: −log10 of the molar value.
Rule: met for pIC50 not less than 7, not met for anything less.

Would you please look over these solved cases?
1) Cn1nc(C(N)=O)c2c1-c1nc(NCCO)ncc1CC2 met
2) Cn1nc(C(N)=O)c2c1-c1nc(NCc3cccnc3)ncc1CC2 met
3) CC(=O)Nc1ccc(CNc2ncc3c(n2)-c2c(c(C(N)=O)nn2C)CC3)cc1 met
4) CN1CCN(C(=O)c2nn(C)c3c2CCc2cnc(NC4CCCC4)nc2-3)CC1 not met
5) Cn1nc(C(=O)N(O)C2CCCCC2)c2c1-c1nc(NC3CCCC3)ncc1CC2 not met

We now examine a further molecule.
Input: Does pIC50 meet or surpass 7 for Cn1nc(C(N)=O)c2c1-c1nc(NCCN3CCOCC3)ncc1CC2 ?
Output: not met

----------
Record type: IC50 measurement. Applies to: Focal adhesion kinase 1 (Homo sapiens)

1. CC(=O)N1CCC(Nc2ncc3c(n2)-c2c(c(C(N)=O)nn2C)CC3)CC1 > 10 µM

Next item in the queue.
Input: GET IC50 | system: Focal adhesion kinase 1 (Homo sapiens) | item: Cn1nc(C(N)=O)c2c1-c1nc(NC3CCN(C(=O)c4ccccc4)CC3)ncc1CC2
Output: > 10 µM

----------
Assay: Solubility at pH 7.0
Assay type: physicochemical
Details: buffer
readout.label: solubility (µM)
Value expressed in µM; do not type the unit.

1) Cn1nc(C(N)=O)c2c1-c1nc(NCc3ccccn3)ncc1CC2 123
2) CN(C)CCN(C)C(=O)c1nn(C)c2c1CCc1cnc(NC3CCCC3)nc1-2 189
3) Cn1nc(C(N)=O)c2c1-c1nc(NCc3ccncc3)ncc1CC2 222

Input: Output measured solubility for this item: CC(=O)N1CCC(n2nc(C(N)=O)c3c2-c2nc(NC4CCCC4)ncc2CC3)CC1
Output: 179

Input: Output measured solubility for this item: Cn1nc(C(N)=O)c2c1-c1nc(NC3CCCC3)ncc1CC2
Output: 13

Input: Output measured solubility for this item: NC(=O)c1nn(-c2ccccn2)c2c1CCc1cnc(NC3CCCC3)nc1-2
Output: 4.9

----------
Target: Activated CDC42 kinase 1 (Homo sapiens, UniProt Q07912)
Sequence (Q07912 whole entry): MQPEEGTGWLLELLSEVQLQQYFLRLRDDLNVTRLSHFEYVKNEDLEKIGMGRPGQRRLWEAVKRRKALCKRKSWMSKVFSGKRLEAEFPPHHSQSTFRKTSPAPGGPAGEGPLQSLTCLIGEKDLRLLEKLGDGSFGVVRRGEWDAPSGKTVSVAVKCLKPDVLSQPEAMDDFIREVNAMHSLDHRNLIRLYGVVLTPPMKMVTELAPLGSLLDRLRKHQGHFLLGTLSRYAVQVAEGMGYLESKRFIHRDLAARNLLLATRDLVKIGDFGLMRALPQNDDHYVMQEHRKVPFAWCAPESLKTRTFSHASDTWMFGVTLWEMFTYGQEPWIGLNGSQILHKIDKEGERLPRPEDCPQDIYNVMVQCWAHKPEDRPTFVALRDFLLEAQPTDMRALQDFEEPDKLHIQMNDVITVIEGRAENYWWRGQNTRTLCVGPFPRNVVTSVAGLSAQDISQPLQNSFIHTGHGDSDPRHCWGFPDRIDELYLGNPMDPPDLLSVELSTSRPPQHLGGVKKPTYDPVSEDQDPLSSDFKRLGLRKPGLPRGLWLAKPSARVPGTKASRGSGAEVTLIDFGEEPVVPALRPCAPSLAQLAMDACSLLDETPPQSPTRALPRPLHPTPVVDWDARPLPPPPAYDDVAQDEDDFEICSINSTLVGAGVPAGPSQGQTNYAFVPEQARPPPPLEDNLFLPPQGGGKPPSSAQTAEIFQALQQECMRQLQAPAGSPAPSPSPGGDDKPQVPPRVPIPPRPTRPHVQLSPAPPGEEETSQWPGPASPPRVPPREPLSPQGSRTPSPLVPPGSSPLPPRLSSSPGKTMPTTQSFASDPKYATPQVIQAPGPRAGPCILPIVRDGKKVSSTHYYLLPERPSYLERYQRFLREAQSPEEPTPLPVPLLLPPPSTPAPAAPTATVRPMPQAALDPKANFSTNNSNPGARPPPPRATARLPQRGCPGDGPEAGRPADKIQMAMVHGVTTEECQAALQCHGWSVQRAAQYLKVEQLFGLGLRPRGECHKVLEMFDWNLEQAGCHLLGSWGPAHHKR
Experiment: Inhibition of ACK1
pIC50: −log10 of the molar value.
readout.label: pIC50

1) Cn1nc(C(N)=O)c2c1-c1nc(NC3CCN(C(=O)c4ccccc4)CC3)ncc1CC2 < 5.00

Input: Output measured pIC50 for this item: CC(=O)N1CCC(Nc2ncc3c(n2)-c2c(c(C(N)=O)nn2C)CC3)CC1
Output: < 5.00

----------
Target: Serine/threonine-protein kinase 26 (Homo sapiens)
Sequence (Q9P289 whole entry): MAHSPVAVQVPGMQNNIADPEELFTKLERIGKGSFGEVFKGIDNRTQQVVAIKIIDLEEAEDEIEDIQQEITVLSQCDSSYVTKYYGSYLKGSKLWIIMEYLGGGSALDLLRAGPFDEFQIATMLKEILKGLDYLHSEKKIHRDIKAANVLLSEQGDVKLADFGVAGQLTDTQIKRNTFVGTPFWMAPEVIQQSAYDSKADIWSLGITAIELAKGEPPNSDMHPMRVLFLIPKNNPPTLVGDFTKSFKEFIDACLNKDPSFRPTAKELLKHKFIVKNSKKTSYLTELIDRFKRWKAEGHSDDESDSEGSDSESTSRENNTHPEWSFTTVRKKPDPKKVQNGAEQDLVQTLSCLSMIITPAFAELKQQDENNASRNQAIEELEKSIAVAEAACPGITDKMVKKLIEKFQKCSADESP
readout.label: IC50

1) CC(=O)N1CCC(Nc2ncc3c(n2)-c2c(c(C(N)=O)nn2C)CC3)CC1 > 10 µM

Next item in the queue.
Input: Output measured IC50 for this item: Cn1nc(C(N)=O)c2c1-c1nc(NC3CCN(C(=O)c4ccccc4)CC3)ncc1CC2
Output: > 10 µM

----------
Assay: Solubility at pH 7.0
Format: physicochemical
Details: buffer
readout.label: solubility (µM)
Value expressed in µM; do not type the unit.

compound	observed.value
CNC(=O)c1nn(C2CCN(C)CC2)c2c1CCc1cnc(NC3CCCC3)nc1-2	182
Cn1nc(C(N)=O)c2c1-c1nc(NCCN3CCOCC3)ncc1CC2	214
Cn1nc(C(N)=O)c2c1-c1nc(NCc3cccnc3)ncc1CC2	138
CC(=O)N1CCC(Nc2ncc3c(n2)-c2c(c(C(N)=O)nn2C)CC3)CC1	216
CNC(=O)c1nn(C)c2c1CCc1cnc(NC3CCN(C)CC3)nc1-2	220

Input: Output measured solubility for this item: CNC(=O)c1nn(C)c2c1CCc1cnc(NC3CCN(C(=O)c4ccccc4)CC3)nc1-2
Output: 168

Input: Output measured solubility for this item: CN1CCC(n2nc(C(N)=O)c3c2-c2nc(NC4CCCC4)ncc2CC3)CC1
Output: 181

Input: Output measured solubility for this item: CN1CCN(c2cccc(CNc3ncc4c(n3)-c3c(c(C(N)=O)nn3C)CC4)c2)CC1
Output: 210

Input: Output measured solubility for this item: NC(=O)c1nn(-c2ccc(S(N)(=O)=O)cc2)c2c1CCc1cnc(NC3CCCC3)nc1-2
Output: 108

Input: Output measured solubility for this item: NC(=O)c1nn(CCO)c2c1CCc1cnc(NC3CCCC3)nc1-2
Output: 27

Input: Output measured solubility for this item: CNC(=O)c1nn(C)c2c1CCc1cnc(NC3CCCCC3)nc1-2
Output: 50

Input: Output measured solubility for this item: Cn1nc(C(N)=O)c2c1-c1nc(NCc3ccc(S(C)(=O)=O)cc3)ncc1CC2
Output: 138

Input: Output measured solubility for this item: CNC(=O)c1nn(C)c2c1CCc1cnc(NC3CCCC3)nc1-2
Output: 36

Input: Output measured solubility for this item: CC(CN(C)C)NC(=O)c1nn(C)c2c1CCc1cnc(NC3CCCC3)nc1-2 (centres undefined)
Output: 171

Input: Output measured solubility for this item: CN1CCN(C(=O)c2nn(C)c3c2CCc2cnc(NC4CCCC4)nc2-3)CC1
Output: 83

Input: Output measured solubility for this item: CN(O)C(=O)c1nn(C)c2c1CCc1cnc(NC3CCCC3)nc1-2
Output: 29

----------
Target: Tyrosine-protein kinase JAK3 (Homo sapiens)
Sequence (P52333 whole entry): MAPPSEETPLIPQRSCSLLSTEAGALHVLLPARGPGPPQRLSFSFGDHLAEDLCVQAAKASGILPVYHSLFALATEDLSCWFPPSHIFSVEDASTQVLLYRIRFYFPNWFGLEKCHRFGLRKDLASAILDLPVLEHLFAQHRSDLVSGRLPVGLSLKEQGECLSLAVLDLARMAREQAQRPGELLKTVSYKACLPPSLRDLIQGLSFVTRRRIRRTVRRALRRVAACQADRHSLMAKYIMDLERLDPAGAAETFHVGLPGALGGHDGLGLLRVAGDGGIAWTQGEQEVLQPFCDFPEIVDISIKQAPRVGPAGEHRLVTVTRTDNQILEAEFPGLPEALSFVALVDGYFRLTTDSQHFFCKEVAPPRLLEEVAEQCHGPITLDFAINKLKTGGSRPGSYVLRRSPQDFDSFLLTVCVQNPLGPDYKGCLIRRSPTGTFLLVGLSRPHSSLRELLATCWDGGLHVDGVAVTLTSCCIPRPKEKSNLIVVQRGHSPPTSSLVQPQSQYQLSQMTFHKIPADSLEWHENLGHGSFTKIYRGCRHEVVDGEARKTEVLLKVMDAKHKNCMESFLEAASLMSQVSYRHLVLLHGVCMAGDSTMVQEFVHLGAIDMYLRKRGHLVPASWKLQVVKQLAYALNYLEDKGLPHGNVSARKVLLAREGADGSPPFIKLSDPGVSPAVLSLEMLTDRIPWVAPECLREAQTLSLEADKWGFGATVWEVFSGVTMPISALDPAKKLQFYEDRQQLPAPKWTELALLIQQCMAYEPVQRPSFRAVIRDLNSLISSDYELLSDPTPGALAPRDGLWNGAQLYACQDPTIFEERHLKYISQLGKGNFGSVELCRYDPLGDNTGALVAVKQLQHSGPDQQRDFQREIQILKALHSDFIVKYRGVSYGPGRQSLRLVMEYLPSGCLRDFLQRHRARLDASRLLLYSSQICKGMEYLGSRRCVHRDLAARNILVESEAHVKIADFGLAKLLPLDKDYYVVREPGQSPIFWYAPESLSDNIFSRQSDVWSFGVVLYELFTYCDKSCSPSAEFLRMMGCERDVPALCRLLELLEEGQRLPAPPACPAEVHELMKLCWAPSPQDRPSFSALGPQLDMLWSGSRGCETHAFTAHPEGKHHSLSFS
Each entry below carries its reported IC50.

1. Cn1nc(C(N)=O)c2c1-c1nc(NC3CCN(C(=O)c4ccccc4)CC3)ncc1CC2 > 10 µM

Next item in the queue.
Input: Output measured IC50 for this item: CC(=O)N1CCC(Nc2ncc3c(n2)-c2c(c(C(N)=O)nn2C)CC3)CC1
Output: > 10 µM
